Test system: SW-620 colon
Assay: NCI-60 one-dose screen, 48 h (100 = growth as untreated, 0 = no growth, -100 = all killed)
Details: 10 µM unless noted
Compounds without any hit were thinned out: in the full panel of roughly 83,000, 20% have a hit.
Please note: growth exactly at 50% is no (0). Only values below 50% get yes (1).

COc1cc2nc(-c3cccc4cccnc34)nc(NC3CCN(Cc4ccccc4)CC3)c2cc1OC: yes (1)
CCCCNc1nc(NC(C)(C)C)nc(NC(C)(C)C)n1: no (0)
COc1cc(C2C3=C(COC3=O)N(CCO)c3cc4c(cc32)CCC4)cc(OC)c1O (configuration not stated): yes (1)
O=CCCCC(O)C=O (configuration not stated): no (0)
O=c1c(-c2nc3ccccc3[nH]2)cc2ccccc2n1Cc1cn(Cc2ccc(N3CCOCC3)cc2)nn1: no (0)
CN(C)/C=C1\SC(=Nc2ccc(Cl)cc2)NC1=O: no (0)
Cc1ccc(NC2=CC(=O)C(=O)c3ccccc32)c(C)c1: yes (1)
Nc1ccc(-n2c(=O)oc3ccc(Cl)cc3c2=O)c(Cl)c1: yes (1)

Lookup: Dear colleague, could you confirm whether growth of `C=C[C@@H]1CCC/C=C/[C@@H]2C[C@H](O)C[C@H]2[C@H](O)/C=C/C(=O)O1` falls below 50%? Thanks.
Found: yes (1)

---

System: HCT-15 colon
Experiment: NCI-60 one-dose screen, 48 h (100 = growth as untreated, 0 = no growth, -100 = all killed)
Details: 10 µM unless noted
This is part of a sample that, as a whole, favours compounds with a hit. Of some 83,000 tested, about 20% had one in any assay.
What growth was measured for each of the following?
One number for each entry, in %.

O=c1c(-c2nc3ccccc3[nH]2)cc2ccccc2n1Cc1cn(Cc2ccccc2Cl)nn1: 19.7
COC(=O)C1(C)COP(=O)(Nc2ccc(OC)cc2)OC1 (configuration not stated): 108
COc1ccc(CCN2C(=O)CCSC2=S)cc1OC: 86.2

Provide the reported growth of each entry below, same order.
1. COc1ccc(OC)c(NC(=O)/C(C#N)=C/c2ccco2)c1
2. Fc1ccc(Oc2ccc(Nc3ncnc4onc(-c5ccccc5)c34)cc2)cc1
3. CCOC(=O)C1(Cc2ccccc2)CCN(Cc2cccc(OC)c2O)CC1

Found:
[91.2, 103, 24]

Fill in growth for each of the 6 compounds listed.
1. CCOc1ccc2nc(C)cc(Nc3ccc(Br)cc3)c2c1
2. CCN1C(=O)N(CC)C2C1NN=c1s/c(=C3\C(=O)N(CC(C)(C)C)c4ccccc43)c(=O)n12 (configuration not stated)
3. COc1ccc(Cn2c(Br)c3c(c2Br)-c2nc(NC(=O)c4ccc(OC)cc4)sc2CC3)cc1
4. Nc1nc(N)c2c(n1)NC1(C=C(O)c3ccccc31)C1=C(N2)c2ccccc2C1=O (configuration not stated)
5. COc1ccc(-c2cn3c(C(=O)Nc4ccccc4Cl)c(-c4ccccc4)c4c3n2CCCC4)cc1
6. Brc1ccc(Oc2ccc(Nc3ncnc4onc(-c5ccccc5)c34)cc2)cc1

Found:
82.2
14.2
92.8
112
60.8
103

Please go through the list and note growth for each compound.
1. Oc1[nH]c2ccccc2c1N=Nc1nnc2n1N=C(c1ccccc1)CS2
2. COc1ccc(N(C)c2nc(N)nc3sc4c(c23)CCCC4)cc1
3. NC(CCc1nc2ccccc2c(=O)[nH]1)C(=O)O (configuration not stated)
4. CC1=CCC(OC(=O)C(C)(C)CCC(O)(C(=O)OC2(C(C)C)CCC3(C)OC3C2)C(C)C)(C(C)C)CC1 (configuration not stated)

Found:
[105, 4.87, 101, -59.8]

Lookup: I would be grateful if you could share the reported growth for `COc1ccc(-c2cn[nH]c2-c2ccc(OC)c(O)c2)cc1` .
Found: 50
